Origin of the recorded values: the supplement of paper PMC7877785

assay: self-splicing fitness, log relative to wild type (ln ratio); higher = more splicing; Tetrahymena group I intron in knt gene, E. coli kanamycin selection, DiMSum; sequences stand for … in CUCUCU…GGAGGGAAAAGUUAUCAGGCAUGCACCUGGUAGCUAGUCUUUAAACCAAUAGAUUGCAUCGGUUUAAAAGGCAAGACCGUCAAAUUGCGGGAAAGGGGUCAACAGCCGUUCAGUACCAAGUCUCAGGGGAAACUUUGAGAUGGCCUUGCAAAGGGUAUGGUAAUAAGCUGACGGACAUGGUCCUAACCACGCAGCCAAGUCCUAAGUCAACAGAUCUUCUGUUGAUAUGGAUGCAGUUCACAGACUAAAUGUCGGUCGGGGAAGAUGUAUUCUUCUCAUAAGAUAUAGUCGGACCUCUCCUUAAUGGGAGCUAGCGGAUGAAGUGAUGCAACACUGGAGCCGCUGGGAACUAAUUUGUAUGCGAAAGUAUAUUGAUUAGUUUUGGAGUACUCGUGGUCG; details: 30 °C;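 also: selection with 25 µg/mL kanamycin versus none on LB agar overnight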
// reported self-splicing fitness (ln) for each item listed
Hey, just send me the number, nothing else.

recordSequence | metric | testResult
AGGAAGCAAUAUUACGCCUU | self-splicing fitness (ln) | -2.67
UGGUAGCAAUAUUACGCCUC | self-splicing fitness (ln) | -1.82
ACUUAGCAAUAUUACGCGUC | self-splicing fitness (ln) | -3.62
CUCGAGCAAUAUUACGUAAC | self-splicing fitness (ln) | -1.53
GUUGAGCAAUAUUACGAAUU | self-splicing fitness (ln) | -3.8
GAAGAGCAAUAUUACGUAGG | self-splicing fitness (ln) | -3.14

Request: For GUAGAGCAAUAUUACGAUAG , what is its reported self-splicing fitness (ln)?
Response: -2.06

Request: Looking for the measured self-splicing fitness (ln) of GUCGAGCAAUAUUACGCAUG , can you help?
Response: -3.47

Request: // returns reported self-splicing fitness (ln) for input UGUGAGCAAUAUUACGGACG
Response: -0.792

Request: self-splicing fitness (ln) for UAGGAGCAAUAUUACGACGG ?
Response: -2.88

Request: Which self-splicing fitness (ln) value is on record for GAAUAGCAAUAUUACGAUCU ?
Response: 0.384

Request: Param item = AACUAGCAAUAUUACGAGUG ; retrieve measured self-splicing fitness (ln).
Response: -0.165
